Below is a list of entries, each paired with its recorded pIC50 value.
- Tested on: K562
- TEST_PROTOCOL: Cytotoxicity against human K562 cells assessed as cell growth inhibition after 48 hrs by MTT assay
- Format: cell-based
- ASSAY_CONDITIONS: K562, 48 h, read-out: IC50
pIC50: −log10 of the molar value.
READOUT_NAME: pIC50

                                item_smiles  tested_system  readout_name  experimental_result
0  COc1cc2c(cc1OC)CN(CCc1ccc(-n3cc(CNc4ccccc4NC(=O)c4ccco4)nn3)cc1)CC2           K562         pIC50                 4.59
1  COc1cc2c(cc1OC)CN(CCc1ccc(-n3cc(CNc4ccccc4NC(=O)c4cc5ccccc5[nH]4)nn3)cc1)CC2           K562         pIC50               < 4.00
2  COc1cc2c(cc1OC)CN(CCc1ccc(-n3cc(CNc4ccccc4NC(=O)c4ccsc4)nn3)cc1)CC2           K562         pIC50               < 4.00
3  COc1cc2c(cc1OC)CN(CCc1ccc(-n3cc(CNc4ccccc4NC(=O)c4cnc5ccccc5c4)nn3)cc1)CC2           K562         pIC50               < 4.00
4  COc1cc2c(cc1OC)CN(CCc1ccc(-n3cc(CNc4ccccc4NC(=O)c4ccccn4)nn3)cc1)CC2           K562         pIC50                 4.35
5  COc1cc2c(cc1OC)CN(CCc1ccc(-n3cc(CNc4ccccc4NC(=O)c4cccs4)nn3)cc1)CC2           K562         pIC50               < 4.00
6  COc1cc2c(cc1OC)CN(CCc1ccc(-n3cc(CNc4ccccc4NC(=O)c4ccc(C)s4)nn3)cc1)CC2           K562         pIC50               < 4.00
